protocol-details: NCI Yeast Anticancer Drug Screen. Data for the CLN2oe strain (AID 163);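 also: 0% = growth of vehicle-only control cultures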
test-parameters: S. cerevisiae CLN2oe strain, at 100.0 µM, hits give high values
About 79,000 compounds went through this panel and 15% of them were active in at least one assay; those are over-represented in the sample as a whole. Active and inactive are the calls of the source. Rule as the data show it: active = growth inhibition above about 70%; inactive = the rest.
Each record here notes measured growth inhibition.

Field: example entries. Status: answers known.
CC(C)C1=CCC2C(=C1)CCC1C(C)(C(=O)O)CCCC21C (configuration not stated) (tested in a mixture with another compound): 96% (active)
Oc1ccc2ccccc2c1C(c1ccc(Cl)cc1)c1c(O)ccc2ccccc12: 82% (active)
COc1ccc(/C=C2\SC(=S)N(/C=C/c3nc4ccccc4[nH]c3=O)C2=O)cc1OC: 88% (active)

Give a short answer stating reported growth inhibition for "CC(C)C1=CC2=C[C@H](O)[C@H]3C(C)(C)CCC[C@]3(C)C2=C(O)C1=O" .
95% (active)

Give a short answer stating reported growth inhibition for "CCCCc1cc(O)ccc1O" .
21% (inactive)

* * *

protocol-details: NCI Yeast Anticancer Drug Screen. Data for the bub3 strain (AID 167)
test-parameters: S. cerevisiae bub3 mutant strain, at 5.0 µM (retest, dose inferred, filed as 0.5)
Compounds without any hit were thinned out: in the full panel of roughly 79,000, 15% have a hit. Calls of active or inactive are those of the source. No stated cut-off is given here; in the data, active means growth inhibition above about 70%; inactive means the rest.
Choose the fitting class; nothing outside active, inactive is accepted.

Cc1nn(-c2cc(Cl)ccc2[N+](=O)[O-])c(C)c1Cl: inactive
O=C1C=CC(=O)N1c1ccc2c(c1)Cc1cc(NC(=O)C(F)(F)F)ccc1-2: inactive
CSC(=S)N/N=C(\C)c1cccc(C)n1: inactive
O=C1NC(=O)C2C3C=CC(C3)C12 (stereo not drawn): inactive
O=C(NCCCCCCCN1CCCCCCC1)C(C1CCCCC1)C1CCCCC1: inactive
O=C1C2C=CC1C1C(=O)OC(=O)C21 (stereo not drawn): inactive
CCCCCCCCC/C=C/C=C/C(=O)NCC(=O)NC1C(O)C(O)C(Nc2ncnc3nc[nH]c23)OC1C(O)CO (stereo not drawn): inactive
CCCCCCCCCCCCCCC(C(=O)[O-])[n+]1ccccc1 (stereo not drawn): inactive

Fill in: this test's call for "C/C(=N\NC(=S)N1CCCCC1)c1cccc(C)n1" is ___
active

* * *

protocol-details: NCI Yeast Anticancer Drug Screen. Data for the wt2 strain (AID 169);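 also: 0% = growth of vehicle-treated yeast cultures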
test-parameters: S. cerevisiae wt2 strain growth inhibition; at 11.0 µM; hits give high values
Compounds without any hit were thinned out: in the full panel of roughly 79,000, 15% have a hit.
quantity: growth inhibition (%)
Note: unit % is implicit; provide only the numeric part.

CC(=O)Nc1ccc2c(c1)C(=Nc1ccc(C(=O)O)cc1)c1ccccc1-2: -2

Give a short answer stating reported growth inhibition for "CO[C@H]1C[C@](C)(O)Cc2cc3c(c(O)c21)C(=O)c1c(O)cc2c(c1C3=O)O[C@@H]1O[C@@]2(C)[C@H](O)[C@@H](N(C)C)[C@@H]1O" .
-26

Give a short answer stating reported growth inhibition for "c1ccc2c(c1)c1ncccc1c1nccnc21" .
16

Give a short answer stating reported growth inhibition for "CC1=C(C)Cc2c(O)ccc(O)c2C1" .
-4

Give a short answer stating reported growth inhibition for "Cc1nc(-[n+]2nc(-c3ccncc3)nn2-c2ccccc2)sc1C" .
18

Give a short answer stating reported growth inhibition for "O=C(CCCN1CCC(O)(c2ccc(Cl)cc2)CC1)c1ccc(F)cc1" .
18

Give a short answer stating reported growth inhibition for "N#CN=Nc1cc(Cl)c(N=NC#N)cc1Cl" .
0
